B1: glmS ribozyme (parent)
chain: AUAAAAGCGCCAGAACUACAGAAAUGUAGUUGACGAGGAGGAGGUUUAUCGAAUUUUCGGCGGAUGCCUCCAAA

Variants of: B1
Assay Text: self-cleavage kobs at 10000 uM GlcN6P; higher = faster cleavage; RNA array
Condition Description: with glucosamine-6-phosphate
Fewer inactive variants are shown than the library holds.
Outcome Measure: self-cleavage kobs at 10000 uM GlcN6P (s⁻¹)

INSERT INTO assay_data (record_sequence, outcome_measure, relational_operator, quantitative_result) VALUES
  ('AUAAAAGCGCCAGAACUACAGAAAUGUAGUUUACGAGGAGGAGGUUUAUCGGAUUUUCGGCGGAUGCGUCCAAA [G32U A52G C68G]', 'self-cleavage kobs at 10000 uM GlcN6P', '=', 0.000398),
  ('AUAAAAGCGCCAUAUCUACAGAAAUGUAGUUGACGAGGAGGAGGUUUAUCGAAUUUUCGGCAGAUGCAUGCAAA [G13U A15U G62A C68A C70G]', 'self-cleavage kobs at 10000 uM GlcN6P', '<', '1e-05'),
  ('AUAAAAGCGCCAGAACUACAGAAAUGUAGUUGACGAGGAGGAGGUUUAUCGAGUUUUUGGCGGAUGCCUUCAAA [A53G C58U C70U]', 'self-cleavage kobs at 10000 uM GlcN6P', '=', 0.000123),
  ('AUAAAAGCGCCCGAACUACAGAAAUGUAGUUGACGAGGAGGAGGAUUAUCGAAUUUUCGGCGGAUGCCUCCAAA [A12C U45A]', 'self-cleavage kobs at 10000 uM GlcN6P', '=', 0.037),
  ('AUAAAAGCGCCAGAACUACAGAAAUGUAGUUGACGAGGAGGAGGUUUAUCGAAUUUUGGGCGGAUGCUUCCAAA [C58G C68U]', 'self-cleavage kobs at 10000 uM GlcN6P', '=', '4.34e-05'),
  ('AUAAAAGCGCCAGUACUACAGAAAUGUAGUUGACGAGGAGGGGGUUCAUCGAAUUUUCGGCGGAUGCCUCCAAA [A14U A42G U47C]', 'self-cleavage kobs at 10000 uM GlcN6P', '=', 0.000229),
  ('AUAAAAGCGCCAUAACUACAGAAAUGUAGUUGACGAGGAGGAGGUCUAUCGAAUUUUCGGCGGAUGCCUCCAAA [G13U U46C]', 'self-cleavage kobs at 10000 uM GlcN6P', '=', '3.18e-05'),
  ('AUAAAAGCGCCAGAACUACAGAAAUGUAGUUGACGAGGAGGAGGUUUAUCGAAUUUUGGGCGGAUGCCUCAAAA [C58G C71A]', 'self-cleavage kobs at 10000 uM GlcN6P', '=', '1.89e-05'),
  ('AUAAAAGCGCCAGAACUACAGAAAUGUAGUUGACGAGGAGGAGCUUUAUCGAAUUUUUGGCGGAUGCCUCCAAA [G44C C58U]', 'self-cleavage kobs at 10000 uM GlcN6P', '<', '1e-05'),
  ('AUAAAAGCGCCAGAACUACAGAAAUGUAGUGGUCGAGGAGGAGGUUUAUCGAAUUUUCGGCGGAUGCCUCCAAA [U31G A33U]', 'self-cleavage kobs at 10000 uM GlcN6P', '=', '7.23e-05'),
  ('AUAAAAGCUCCAGAACUACAGAAAUGUAGUUGACGAGGAGGAGGUUUAUCGAAUUUUCUGCGGAUGCCUCCAAA [G9U G59U]', 'self-cleavage kobs at 10000 uM GlcN6P', '<', '1e-05');
